system: HepG2; assay: Cytotoxicity against human HepG2 cells assessed as reduction in metabolic activity incubated for 48 hrs; type: functional, cell-based; conditions: HepG2, 48 h

entry.smiles: COc1ccc(CN2CCN(C(=O)CCl)CC2)cc1-c1cc2c(-c3ccc(C(=O)O)cc3)ccnc2[nH]1
EC50: > 63.1 µM

====

tested on: Plasmodium falciparum; assay: Antimalarial activity in asexual blood-stage Plasmodium falciparum Dd2-B2 infected in human O+ erythrocytes assessed as reduction in parasitemia incubated for 72 hrs by SYBR green / MitoTracker Deep Red dye based flow cytometry analysis; assay type: functional, organism-based; conditions: Dd2-B2, Erythrocyte

entry.smiles: COc1ccc(CN2CCN(C(=O)CCl)CC2)cc1-c1cc2c(-c3ccc(C(=O)O)cc3)ccnc2[nH]1
experimental.system: Plasmodium falciparum
IC50 / nM: 240

Origin of values: ChEMBL document CHEMBL6074658
